Overview of reported EC50 across a group of compounds:
test system: human corpus cavernosum tissue; assay: Concentration response relaxation studies of human corpus cavernosum tissue strips contracted with phenylephrine; assay type: cell-based; settings: compound alone, strips contracted with 0.5 μM phenylephrine, relaxation as % of 0.1 mM papaverine, n=5, read-out: EC50 (concentration required to obtain the half-maximum response) for relaxation
Give the value, in units of nM, as a plain number.

>>> readout_value("N[C@@H](CCC(=O)N[C@@H](CSN=O)C(=O)NCC(=O)O)C(=O)O [GS-NO]")
2560

Now let's try a different one.
CCCCC[C@H](O)/C=C/[C@H]1[C@H](O)CC(=O)[C@@H]1CCCCCCC(=O)O [PGE1] has a reported EC50 of 83
